Can you tell me Viable cell count for the items I'm about to list?
# Tested on: HIV (LAV 1)
# test_details: microbe, parasite or virus in culture
# condition_parameters: 10 mcg/ml, 4-day addition, after 10 days
Units required after the number.

Exercise: // returns reported Viable cell count for input C[C@H]1COc2c(N3CCN(C)CC3)c(F)cc3c(=O)c(C(=O)O)cn1c23 [DR-3355, hemihydrate]
Key: 280 × 10⁴ cells/ml

Exercise: // returns reported Viable cell count for input CCn1cc(C(=O)O)c(=O)c2cc(F)c(N3CCNCC3)cc21 [NFLX]
Key: 250 × 10⁴ cells/ml

Exercise: // returns reported Viable cell count for input CCN1CCN(c2c(F)cc3c(=O)c(C(=O)O)cn4c3c2OCC4C)CC1 (racemic) [IIIa]
Key: 260 × 10⁴ cells/ml

Exercise: // returns reported Viable cell count for input CC(C)N1CCN(c2c(F)cc3c(=O)c(C(=O)O)cn4c3c2OCC4C)CC1 (racemic) [IIId]
Key: 280 × 10⁴ cells/ml

Exercise: // returns reported Viable cell count for input CCCCN1CCN(c2c(F)cc3c(=O)c(C(=O)O)cn4c3c2OCC4C)CC1 (racemic) [IIIc]
Key: 250 × 10⁴ cells/ml

Exercise: // returns reported Viable cell count for input Cl.O.O=C(O)c1cn(C2CC2)c2cc(N3CCNCC3)c(F)cc2c1=O [CPFX]
Key: 250 × 10⁴ cells/ml

Exercise: // returns reported Viable cell count for input CCCN1CCN(c2c(F)cc3c(=O)c(C(=O)O)cn4c3c2OCC4C)CC1 (racemic) [IIIb]
Key: 240 × 10⁴ cells/ml

Exercise: // returns reported Viable cell count for input CCn1cc(C(=O)O)c(=O)c2cc(F)c(N3CCNCC3)nc21 [ENX]
Key: 150 × 10⁴ cells/ml

Exercise: // returns reported Viable cell count for input CC1COc2c(N3CCN(C)CC3)c(F)cc3c(=O)c(C(=O)O)cn1c23 (racemic) [OFLX]
Key: 280 × 10⁴ cells/ml

###

# Tested on: HIV (LAV 1)
# test_details: microbe, parasite or virus in culture
# condition_parameters: 10 mcg/ml, 4-day addition, after 10 days
Can you tell me Viral antigen-positive cell percentage for the items I'm about to list?
Units required after the number.

Exercise: // returns reported Viral antigen-positive cell percentage for input CCn1cc(C(=O)O)c(=O)c2cc(F)c(N3CCNCC3)nc21
Key: 30%

Exercise: // returns reported Viral antigen-positive cell percentage for input Cl.O.O=C(O)c1cn(C2CC2)c2cc(N3CCNCC3)c(F)cc2c1=O
Key: 27%

Exercise: // returns reported Viral antigen-positive cell percentage for input CCN1CCN(c2c(F)cc3c(=O)c(C(=O)O)cn4c3c2OCC4C)CC1 (racemic)
Key: 26%

Exercise: // returns reported Viral antigen-positive cell percentage for input CCn1cc(C(=O)O)c(=O)c2cc(F)c(N3CCNCC3)cc21
Key: 50%

Exercise: // returns reported Viral antigen-positive cell percentage for input CCCCN1CCN(c2c(F)cc3c(=O)c(C(=O)O)cn4c3c2OCC4C)CC1 (racemic)
Key: 9%

Exercise: // returns reported Viral antigen-positive cell percentage for input CC1COc2c(N3CCN(C)CC3)c(F)cc3c(=O)c(C(=O)O)cn1c23 (racemic)
Key: 40%

Exercise: // returns reported Viral antigen-positive cell percentage for input CC(C)N1CCN(c2c(F)cc3c(=O)c(C(=O)O)cn4c3c2OCC4C)CC1 (racemic)
Key: 25%

Exercise: // returns reported Viral antigen-positive cell percentage for input C[C@H]1COc2c(N3CCN(C)CC3)c(F)cc3c(=O)c(C(=O)O)cn1c23 [DR-3355, hemihydrate]
Key: 31%

Exercise: // returns reported Viral antigen-positive cell percentage for input CCCN1CCN(c2c(F)cc3c(=O)c(C(=O)O)cn4c3c2OCC4C)CC1 (racemic)
Key: 40%

###

# System: HIV (LAV 1)
# test_details: microbe, parasite or virus in culture
# condition_parameters: 2.5 mcg/ml, 4-day addition, after 30 days
measure_name: Viral antigen-positive cell percentage (%)
State just the number; it will be interpreted in %.

Exercise: // returns reported Viral antigen-positive cell percentage for input CC1COc2c(N3CCN(C)CC3)c(F)cc3c(=O)c(C(=O)O)cn1c23 (racemic) [OFLX]
Key: 6

Exercise: // returns reported Viral antigen-positive cell percentage for input C[C@H]1COc2c(N3CCN(C)CC3)c(F)cc3c(=O)c(C(=O)O)cn1c23 [DR-3355, hemihydrate]
Key: 10

###

# System: HIV (LAV 1)
# test_details: microbe, parasite or virus in culture
# condition_parameters: 10 mcg/ml, 4-day addition, after 30 days
measure_name: Viable cell count

Exercise: // returns reported Viable cell count for input CCCCN1CCN(c2c(F)cc3c(=O)c(C(=O)O)cn4c3c2OCC4C)CC1 (racemic)
Key: 320 × 10⁴ cells/ml

Exercise: // returns reported Viable cell count for input CCN1CCN(c2c(F)cc3c(=O)c(C(=O)O)cn4c3c2OCC4C)CC1 (racemic)
Key: 330 × 10⁴ cells/ml

Exercise: // returns reported Viable cell count for input CCn1cc(C(=O)O)c(=O)c2cc(F)c(N3CCNCC3)cc21
Key: 400 × 10⁴ cells/ml

Exercise: // returns reported Viable cell count for input CCn1cc(C(=O)O)c(=O)c2cc(F)c(N3CCNCC3)nc21
Key: 379 × 10⁴ cells/ml

Exercise: // returns reported Viable cell count for input CC1COc2c(N3CCN(C)CC3)c(F)cc3c(=O)c(C(=O)O)cn1c23 (racemic)
Key: 320 × 10⁴ cells/ml

###

# Test system: HIV (LAV 1)
# test_details: microbe, parasite or virus in culture
# condition_parameters: 5 mcg/ml, 4-day addition, after 30 days
measure_name: Viable cell count (× 10⁴ cells/ml)
State just the number; it will be interpreted in × 10⁴ cells/ml.

Exercise: // returns reported Viable cell count for input CCn1cc(C(=O)O)c(=O)c2cc(F)c(N3CCNCC3)cc21 [NFLX]
Key: 330

Exercise: // returns reported Viable cell count for input Cl.O.O=C(O)c1cn(C2CC2)c2cc(N3CCNCC3)c(F)cc2c1=O [CPFX]
Key: 320

Exercise: // returns reported Viable cell count for input CC1COc2c(N3CCN(C)CC3)c(F)cc3c(=O)c(C(=O)O)cn1c23 (racemic) [OFLX]
Key: 330

Exercise: // returns reported Viable cell count for input CCn1cc(C(=O)O)c(=O)c2cc(F)c(N3CCNCC3)nc21 [ENX]
Key: 310

Exercise: // returns reported Viable cell count for input C[C@H]1COc2c(N3CCN(C)CC3)c(F)cc3c(=O)c(C(=O)O)cn1c23 [DR-3355, hemihydrate]
Key: 360

###

# Test system: HIV (LAV 1)
# test_details: microbe, parasite or virus in culture
# condition_parameters: 2.5 mcg/ml, 4-day addition, after 30 days
measure_name: Viable cell count (× 10⁴ cells/ml)
State just the number; it will be interpreted in × 10⁴ cells/ml.

Exercise: // returns reported Viable cell count for input CC1COc2c(N3CCN(C)CC3)c(F)cc3c(=O)c(C(=O)O)cn1c23 (racemic)
Key: 300

Exercise: // returns reported Viable cell count for input CCn1cc(C(=O)O)c(=O)c2cc(F)c(N3CCNCC3)cc21
Key: 70

Exercise: // returns reported Viable cell count for input CCn1cc(C(=O)O)c(=O)c2cc(F)c(N3CCNCC3)nc21
Key: 2

Exercise: // returns reported Viable cell count for input Cl.O.O=C(O)c1cn(C2CC2)c2cc(N3CCNCC3)c(F)cc2c1=O
Key: 360

Exercise: // returns reported Viable cell count for input C[C@H]1COc2c(N3CCN(C)CC3)c(F)cc3c(=O)c(C(=O)O)cn1c23 [DR-3355, hemihydrate]
Key: 130

###

# Test system: HIV (LAV 1)
# test_details: microbe, parasite or virus in culture
# condition_parameters: 1 mcg/ml, 4-day addition, after 20 days
For each record, check the reported Viable cell count: if it is below 10 × 10⁴ cells/ml write YES, else write NO.

Exercise: A record lists C[C@H]1COc2c(N3CCN(C)CC3)c(F)cc3c(=O)c(C(=O)O)cn1c23 [DR-3355, hemihydrate] . Is its Viable cell count below 10 × 10⁴ cells/ml?
Key: YES

Exercise: A record lists CC1COc2c(N3CCN(C)CC3)c(F)cc3c(=O)c(C(=O)O)cn1c23 (racemic) . Is its Viable cell count below 10 × 10⁴ cells/ml?
Key: NO

Exercise: A record lists CCN1CCN(c2c(F)cc3c(=O)c(C(=O)O)cn4c3c2OCC4C)CC1 (racemic) . Is its Viable cell count below 10 × 10⁴ cells/ml?
Key: NO

Exercise: A record lists CCn1cc(C(=O)O)c(=O)c2cc(F)c(N3CCNCC3)nc21 . Is its Viable cell count below 10 × 10⁴ cells/ml?
Key: YES

Exercise: A record lists CCn1cc(C(=O)O)c(=O)c2cc(F)c(N3CCNCC3)cc21 . Is its Viable cell count below 10 × 10⁴ cells/ml?
Key: YES

Exercise: A record lists CCCN1CCN(c2c(F)cc3c(=O)c(C(=O)O)cn4c3c2OCC4C)CC1 (racemic) . Is its Viable cell count below 10 × 10⁴ cells/ml?
Key: NO

Exercise: A record lists Cl.O.O=C(O)c1cn(C2CC2)c2cc(N3CCNCC3)c(F)cc2c1=O . Is its Viable cell count below 10 × 10⁴ cells/ml?
Key: YES

Exercise: A record lists CC(C)N1CCN(c2c(F)cc3c(=O)c(C(=O)O)cn4c3c2OCC4C)CC1 (racemic) . Is its Viable cell count below 10 × 10⁴ cells/ml?
Key: NO
